Values were extracted from patent US10485881B2.

ASSAY SYSTEM: cathepsin B (Homo sapiens, UniProt P07858)
METHOD NOTES: Drug release assay with cathepsin B
Assay type: biochemical
COND: cathepsin B (isolated enzyme); free linker-drug constructs; HPLC at 348 nm; sodium acetate buffer pH 5.0; NH = no hydrolysis; read-out: Cathepsin B t1/2 (time when 50% of the drug is released from linker)
PARAMETER MEASURED: half-life at 25 μM

Return reported half-life at 25 μM; argument: COc1cc2ncnc(Nc3ccc(F)c(Cl)c3)c2cc1OCCCNC(=O)OCc1ccc(NC(=O)[C@H](CCCCN)NC(=O)[C@H](Cc2ccccc2)NC(=O)CCOCCOCCOCCOCCOCCOCCOCCOCCS)cc1 [Phe-Lys-PABC-APdMG (5), HS-dPEG8-Phe-Lys-PABC-aminopropyl-dMG]
< 1 min
